# Test system: SNARK
# Construct: gene NUAK2
# Cond: concentration: 1 μM,replicates: in singlicate; n = 1;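 further: KINOMEscan kinase panel screen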

| Compound | Units of measure | %Inh |
| --- | --- | --- |
| O=C(NCCCN1CCOC1=O)c1cnc(NCc2cc(Cl)ccc2Cl)nc1NC1CCCC1 | % | 0 |
| Cc1ccc(-n2nc(C(C)(C)C)cc2NC(=O)Nc2ccc(OCCN3CCOCC3)c3ccccc23)cc1 [GW839464] | % | 0 |
| Cc1occc1-c1nc(N)c(OC[C@@H](N)Cc2c[nH]c3ccccc23)cc1-c1cc2c(C)n[nH]c2cn1 [GSK1660450] | % | 96.9 |
| Cl.Oc1cc(-c2nc(-c3ccccc3)[nH]c2-c2ccncc2)ccc1Cl [SB-386023] | % | 24 |
| C[C@@H](Oc1cc(-c2cnn(C3CCNCC3)c2)cnc1N)c1c(Cl)ccc(F)c1Cl | % | 96.7 |
| CC(C)Nc1cc(-c2ccc3c(N)n[nH]c3c2)nc(N)n1 [GSK2221681] | % | 17 |
| Cc1cc2cn[nH]c2cc1-c1cccc2c(N)c(C(N)=O)nnc12 | % | 62 |
| Cl.Cl.NC[C@H](CC1CCCCC1)NC(=O)c1cc(Br)c(-c2ccnc3[nH]ccc23)s1 [GSK1581427] | % | 90.5 |
| Cc1ccc2c(-c3ccncc3)c(-c3ccc(F)cc3)nn2c1.Cl [GW461484] | % | 4 |

---

# System: TLK1
# Cond: concentration: 1 μM,replicates: in singlicate; n = 1
Reported %Inh values follow for various molecules
Readout: %Inh (%)

| Mol smiles | Recorded value |
| --- | --- |
| Cc1occc1-c1nc(N)c(OC[C@@H](N)Cc2c[nH]c3ccccc23)cc1-c1cc2c(C)n[nH]c2cn1 | 0 |
| Nc1nc(Nc2ccccc2)cc(-c2ccc3c(N)n[nH]c3c2)n1 | 0 |
| Cl.Cl.NC[C@H](Cc1ccc(C(F)(F)F)cc1)NC(=O)c1cc(Br)c(-c2ccnc3[nH]ccc23)s1 | 8 |
| Cl.Oc1cc(-c2nc(-c3ccccc3)[nH]c2-c2ccncc2)ccc1Cl | 0 |
| Cc1ccc(-n2nc(C(C)(C)C)cc2NC(=O)Nc2ccc(OCCN3CCOCC3)c3ccccc23)cc1 | 3 |
| CCn1c(-c2nonc2N)nc2c(C#CC(C)(C)O)nc(OCCN)cc21.Cl.Cl | 0 |
| Cc1ccc2c(-c3ccncc3)c(-c3ccc(F)cc3)nn2c1.Cl | 0 |
| CCN(CC)CCOc1ccc(Nc2ncc3cc(-c4c(Cl)cccc4Cl)c(=O)n(C)c3n2)cc1 | 5 |
| Cl.Cl.NC[C@H](CC1CCCCC1)NC(=O)c1cc(Br)c(-c2ccnc3[nH]ccc23)s1 | 57 |
| Cc1cc(C(=O)Nc2ccc(Oc3ccc4nc(NC(=O)C5CC5)cn4n3)cc2)nn1-c1ccccc1 | 0 |
| COc1ccc(C[C@@H](CN)NC(=O)c2cc(Br)c(-c3ccnc4[nH]ccc34)s2)cc1.Cl.Cl | 19 |
| CC(C)N1C(=O)Cc2cc(Nc3ncc(C(F)(F)F)c(NCc4cccc(S(C)(=O)=O)c4)n3)ccc21 | 23 |
| Cc1n[nH]c2ccc(-c3cc(OC[C@@H](N)Cc4ccccc4)cnc3-c3ccoc3)cc12.O=C(O)C(F)(F)F.O=C(O)C(F)(F)F | 0 |
| CC(C)Nc1cc(-c2ccc3c(N)n[nH]c3c2)nc(N)n1 | 9 |
| CCN(CC)CCCCNc1ncc2cc(-c3c(Cl)cccc3Cl)c(NC(=O)NC(C)(C)C)nc2n1 | 15 |

---

Documented %Inh across a set of molecules
# System: ROCK1
# Cond: concentration: 1 μM,replicates: in singlicate; n = 1
Readout: %Inh (%)

| Molecule | Recorded value |
| --- | --- |
| C=CC(=O)Nc1cc2c(Nc3ccc(F)c(Cl)c3)ncnc2cc1OCCCN1CCOCC1 [GW781483] | 42 |
| Cl.Cl.NC[C@H](Cc1ccc(C(F)(F)F)cc1)NC(=O)c1cc(Br)c(-c2ccnc3[nH]ccc23)s1 [GSK1487252] | 98.2 |
| Cc1cc2cn[nH]c2cc1-c1cccc2c(N)c(C(N)=O)nnc12 | 70 |
| C[C@@H](Oc1cc(-c2cnn(C3CCNCC3)c2)cnc1N)c1c(Cl)ccc(F)c1Cl | 5 |

---

# System: RIOK1
# Cond: concentration: 1 μM,replicates: in singlicate; n = 1
The reader will find reported %Inh values listed item by item below.

| Molecule | Subject of test | %Inh / % |
| --- | --- | --- |
| Cc1cc2cn[nH]c2cc1-c1cccc2c(N)c(C(N)=O)nnc12 | RIOK1 | 100 |
| Cl.Cl.NC[C@H](CC1CCCCC1)NC(=O)c1cc(Br)c(-c2ccnc3[nH]ccc23)s1 [GSK1581427] | RIOK1 | 100 |
| O=C(NCCNc1ccnc(NCc2ccc(F)cc2)n1)c1cc2ccccc2s1 [GSK1379944] | RIOK1 | 28 |
| Cl.Cl.NC[C@H](Cc1ccc(C(F)(F)F)cc1)NC(=O)c1cc(Br)c(-c2ccnc3[nH]ccc23)s1 [GSK1487252] | RIOK1 | 35 |
| CN(C)CCOc1ccc(-c2cc(-c3c[nH]nc3-c3ccccn3)ccn2)cc1 [GW835314] | RIOK1 | 0 |
| CNC(=O)c1ccccc1Sc1ccc2c(/C=C/c3ccccn3)n[nH]c2c1 | RIOK1 | 2 |
| C=CC(=O)Nc1cc2c(Nc3ccc(F)c(Cl)c3)ncnc2cc1OCCCN1CCOCC1 [GW781483] | RIOK1 | 54 |
| Cl.Oc1cc(-c2nc(-c3ccccc3)[nH]c2-c2ccncc2)ccc1Cl [SB-386023] | RIOK1 | 0 |
| CCn1c(-c2nonc2N)nc2c(C#CC(C)(C)O)nc(OCCN)cc21.Cl.Cl [GSK902056] | RIOK1 | 0 |

---

# Tested on: PHKG1
# Cond: concentration: 1 μM,replicates: in singlicate; n = 1
Entries annotated with measured %Inh

| Compound | %Inh [%] |
| --- | --- |
| Nc1nc(Nc2ccccc2)cc(-c2ccc3c(N)n[nH]c3c2)n1 [GSK2225749] | 0 |
| Cc1n[nH]c2ccc(-c3cc(OC[C@@H](N)Cc4ccccc4)cnc3-c3ccoc3)cc12.O=C(O)C(F)(F)F.O=C(O)C(F)(F)F [GSK507358] | 0 |
| Cl.Oc1cc(-c2nc(-c3ccccc3)[nH]c2-c2ccncc2)ccc1Cl [SB-386023] | 0 |
| Cc1cc(C(=O)Nc2ccc(Oc3ccc4nc(NC(=O)C5CC5)cn4n3)cc2)nn1-c1ccccc1 | 49 |
| O=C(NCCNc1ccnc(NCc2ccc(F)cc2)n1)c1cc2ccccc2s1 [GSK1379944] | 0 |
| C=CC(=O)Nc1cc2c(Nc3ccc(F)c(Cl)c3)ncnc2cc1OCCCN1CCOCC1 [GW781483] | 0 |
| Cc1cc2cn[nH]c2cc1-c1cccc2c(N)c(C(N)=O)nnc12 | 26 |
| CCN(CC)CCOc1ccc(Nc2ncc3cc(-c4c(Cl)cccc4Cl)c(=O)n(C)c3n2)cc1 [SB-601273] | 0 |

---

# Tested on: CLK1
# Cond: concentration: 1 μM,replicates: in singlicate; n = 1
// label = yes (1) if %Inh is not less than 40%, otherwise no (0)

| Molecule | Category |
| --- | --- |
| Cc1cc(C(=O)Nc2ccc(Oc3ccc4nc(NC(=O)C5CC5)cn4n3)cc2)nn1-c1ccccc1 | no (0) |
| O=C(NCCCN1CCOC1=O)c1cnc(NCc2cc(Cl)ccc2Cl)nc1NC1CCCC1 | no (0) |
| O=C(NCCNc1ccnc(NCc2ccc(F)cc2)n1)c1cc2ccccc2s1 | no (0) |
| NC(=O)c1cc(-c2ccccc2)cc2c(C3CCNCC3)c[nH]c12 | no (0) |
| Cl.Cl.NC[C@H](Cc1ccc(C(F)(F)F)cc1)NC(=O)c1cc(Br)c(-c2ccnc3[nH]ccc23)s1 | yes (1) |
| C[C@H]1Oc2cc(cnc2N)-c2c(nn(C)c2C#N)CN(C)C(=O)c2ccc(F)cc21 | no (0) |
| Cl.Cl.Nc1nc(-c2ccc3c(N)n[nH]c3c2)cc(N2CCCC(NC(=O)c3ccccc3)C2)n1 (centres unmarked) | yes (1) |
| CCn1c(-c2nonc2N)nc2c(C#CC(C)(C)O)nc(OCCN)cc21.Cl.Cl | no (0) |

---

Reported %Inh is given for each of the following compounds.
# Test system: SGK
# Cond: concentration: 1 μM,replicates: in singlicate; n = 1
Readout: %Inh (%)

| Compound | Recorded value |
| --- | --- |
| O=C(NCCNc1ccnc(NCc2ccc(F)cc2)n1)c1cc2ccccc2s1 [GSK1379944] | 0 |
| NC(=O)c1cc(-c2ccccc2)cc2c(C3CCNCC3)c[nH]c12 [GSK301362] | 0 |
| Cl.Cl.NC[C@H](Cc1ccc(C(F)(F)F)cc1)NC(=O)c1cc(Br)c(-c2ccnc3[nH]ccc23)s1 [GSK1487252] | 51 |
| Nc1nc(Nc2ccccc2)cc(-c2ccc3c(N)n[nH]c3c2)n1 [GSK2225749] | 6 |
